STUDY_TARGET: bovine cardiac myosin (Bos taurus (Bovine), UniProt Q9BE39)
Sequence (Q9BE39 whole entry): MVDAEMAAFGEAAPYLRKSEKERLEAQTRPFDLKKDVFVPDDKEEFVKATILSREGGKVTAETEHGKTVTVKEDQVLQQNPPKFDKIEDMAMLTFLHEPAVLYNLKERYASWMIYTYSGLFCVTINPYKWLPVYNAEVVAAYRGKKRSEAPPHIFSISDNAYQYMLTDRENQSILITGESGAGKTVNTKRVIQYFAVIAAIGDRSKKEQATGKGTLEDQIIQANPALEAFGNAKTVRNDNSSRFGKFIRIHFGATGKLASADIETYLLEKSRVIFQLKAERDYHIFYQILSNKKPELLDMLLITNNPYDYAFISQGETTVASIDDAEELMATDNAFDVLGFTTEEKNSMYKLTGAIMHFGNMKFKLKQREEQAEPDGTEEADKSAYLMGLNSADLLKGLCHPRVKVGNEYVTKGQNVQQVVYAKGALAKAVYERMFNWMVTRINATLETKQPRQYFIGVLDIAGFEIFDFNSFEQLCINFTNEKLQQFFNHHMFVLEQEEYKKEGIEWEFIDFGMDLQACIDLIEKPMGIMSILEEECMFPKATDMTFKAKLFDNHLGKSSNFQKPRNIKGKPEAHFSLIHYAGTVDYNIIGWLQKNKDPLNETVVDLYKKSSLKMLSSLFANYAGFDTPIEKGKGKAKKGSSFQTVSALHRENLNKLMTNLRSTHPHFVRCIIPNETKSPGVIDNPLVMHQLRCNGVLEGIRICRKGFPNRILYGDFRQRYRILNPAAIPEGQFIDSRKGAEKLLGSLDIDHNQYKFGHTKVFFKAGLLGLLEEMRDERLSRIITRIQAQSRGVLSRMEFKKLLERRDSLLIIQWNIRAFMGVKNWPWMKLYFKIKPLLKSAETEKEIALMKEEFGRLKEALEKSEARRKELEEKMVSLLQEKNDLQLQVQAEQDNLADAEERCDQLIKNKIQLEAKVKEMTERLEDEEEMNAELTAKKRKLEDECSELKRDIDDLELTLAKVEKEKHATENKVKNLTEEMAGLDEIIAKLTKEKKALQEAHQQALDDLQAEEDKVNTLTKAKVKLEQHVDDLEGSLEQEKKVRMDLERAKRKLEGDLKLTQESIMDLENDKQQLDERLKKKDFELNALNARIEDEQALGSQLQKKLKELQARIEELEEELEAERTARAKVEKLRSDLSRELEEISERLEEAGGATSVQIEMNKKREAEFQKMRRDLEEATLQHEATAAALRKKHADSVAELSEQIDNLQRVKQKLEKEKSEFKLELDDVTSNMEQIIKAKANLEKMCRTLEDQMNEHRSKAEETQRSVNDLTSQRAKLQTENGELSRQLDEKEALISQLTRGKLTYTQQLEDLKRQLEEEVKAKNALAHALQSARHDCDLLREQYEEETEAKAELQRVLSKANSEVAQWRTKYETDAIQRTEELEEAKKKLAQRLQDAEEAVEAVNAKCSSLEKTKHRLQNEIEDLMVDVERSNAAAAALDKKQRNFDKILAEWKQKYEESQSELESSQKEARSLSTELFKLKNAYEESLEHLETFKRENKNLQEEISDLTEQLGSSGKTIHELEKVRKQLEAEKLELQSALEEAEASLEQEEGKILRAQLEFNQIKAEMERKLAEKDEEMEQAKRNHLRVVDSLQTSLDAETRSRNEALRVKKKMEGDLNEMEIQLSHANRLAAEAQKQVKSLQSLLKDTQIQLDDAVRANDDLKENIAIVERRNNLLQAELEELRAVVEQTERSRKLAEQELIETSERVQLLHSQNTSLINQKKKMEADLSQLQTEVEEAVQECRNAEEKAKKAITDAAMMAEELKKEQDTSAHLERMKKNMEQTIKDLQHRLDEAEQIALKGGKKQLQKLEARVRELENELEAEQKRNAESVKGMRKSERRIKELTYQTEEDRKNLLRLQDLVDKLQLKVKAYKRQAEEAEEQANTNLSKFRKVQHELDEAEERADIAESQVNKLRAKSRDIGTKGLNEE
Sequence (P85100 whole entry partner): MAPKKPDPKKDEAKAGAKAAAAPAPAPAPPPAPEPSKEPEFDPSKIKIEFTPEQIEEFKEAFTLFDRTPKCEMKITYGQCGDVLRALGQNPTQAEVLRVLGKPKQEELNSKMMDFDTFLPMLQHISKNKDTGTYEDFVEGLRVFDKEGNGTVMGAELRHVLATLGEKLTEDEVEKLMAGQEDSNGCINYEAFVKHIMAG
Sequence (Q3SZE5 whole entry partner): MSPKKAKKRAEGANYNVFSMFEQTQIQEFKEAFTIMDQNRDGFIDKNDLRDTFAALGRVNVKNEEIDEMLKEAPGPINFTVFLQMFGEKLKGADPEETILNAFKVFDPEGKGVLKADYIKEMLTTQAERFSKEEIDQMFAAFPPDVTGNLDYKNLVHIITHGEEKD
TEST_METHOD_NOTES: Myosin inhibitory potency: PK/LDH-coupled ATPase assay on bovine skinned cardiac myofibrils
Type: biochemical
SETTINGS: pCa=6.25, 50 μM ATP, 25° C., read-out: myosin inhibition activity IC50
pIC50: −log10 of the molar value.
ENDPOINT: pIC50

Past entries and their recorded results:
CO[C@@H]1COCC[C@H]1n1c(=O)nc(N[C@@H](C)c2cc(C)ccc2F)[nH]c1=O; 5.96
C[C@H](Nc1nc(=O)n(C2CCOCC2)c(=O)[nH]1)c1c(F)cccc1F; 5.67
CC(Nc1nc(=O)n(C2CCOCC2)c(=O)[nH]1)c1cc(F)ccc1F (centres unmarked) [Example 127]; 5.74
CC(Nc1nc(=O)n(C2CCOCC2)c(=O)[nH]1)c1ccccc1Br (centres unmarked); 5.47
COC(=O)N1CCC(n2c(=O)nc(N[C@@H](C)c3cccc(C)c3)[nH]c2=O)CC1; 5.91

(a) COC[C@H](Nc1nc(=O)n(C2CCOCC2)c(=O)[nH]1)c1ccccc1
(b) C[C@H](Nc1nc(=O)n([C@H]2CCOC[C@H]2F)c(=O)[nH]1)c1ccc(Cl)c(Cl)c1
(c) CC(Nc1nc(=O)n(C2CCOCC2)c(=O)[nH]1)c1cccc(C2CC2)c1 (centres unmarked)
In this exercise, place the 3 compounds in ascending sequence of their recorded pIC50. List each label, following the requested order.
c, a, b
(c: 5.30, a: 5.75, b: 5.97)

###

STUDY_TARGET: bovine cardiac myosin (Bos taurus (Bovine))
TEST_METHOD_NOTES: Myosin inhibitory potency: PK/LDH-coupled ATPase assay on bovine skinned cardiac myofibrils
SETTINGS: pCa=6.25, 50 μM ATP, 25° C., read-out: myosin inhibition activity IC50
pIC50: −log10 of the molar value.
ENDPOINT: pIC50

Past entries and their recorded results:
C[C@H](Nc1nc(=O)n(C2CCOCC2)c(=O)[nH]1)c1cccc(N2CCN(C)CC2)c1 [Example 212]; 4.75
CC(C)n1c(=O)nc(N[C@@H](C)c2cccc(F)c2)[nH]c1=O [Example 181]; 5.62
CC(C)n1c(=O)nc(N[C@@H](C)c2cccc(C3CCNCC3)c2)[nH]c1=O [Example 293]; 5.55
CCC(Nc1nc(=O)n(C2CCOCC2)c(=O)[nH]1)c1cccc(C)c1 (stereo not drawn) [Example 292]; 6.04
CC(Nc1nc(=O)n(C2CCOCC2)c(=O)[nH]1)c1ccccc1O (stereo not drawn) [Example 101]; 4.97
C[C@H](Nc1nc(=O)n(C2CCOCC2)c(=O)[nH]1)c1cccc(C(O)C(F)(F)F)c1 (stereo partly drawn) [Example 348]; 5.61
Cc1cccc([C@H](C)Nc2nc(=O)n(C3CCN(CC(F)(F)F)CC3)c(=O)[nH]2)c1 [Example 39]; 5.17
Cc1ccc(C(C)Nc2nc(=O)n(C3CCNCC3)c(=O)[nH]2)cc1 (stereo not drawn) [Example 194]; 5.35
CC(Nc1nc(=O)n(C2CCOCC2)c(=O)[nH]1)c1ccc(F)cc1 (stereo not drawn) [Example 125]; 5.08
C[C@H](Nc1nc(=O)n(-c2cccnc2)c(=O)[nH]1)C1CCCCC1 [Example 24]; 5.04

(a) CC(C)n1c(=O)nc(N[C@@H](C)c2cccc(C(C)(C)O)c2)[nH]c1=O [Example 307]
(b) Cc1cccc(C(C)Nc2nc(=O)n(C3CCNCC3)c(=O)[nH]2)c1 (stereo not drawn) [Example 187]
(c) Cc1cccc([C@H](C)Nc2nc(=O)n(C3CCOC3)c(=O)[nH]2)c1 (stereo partly drawn) [Example 95]
(d) C[C@H](Nc1nc(=O)n(C2CCOCC2)c(=O)[nH]1)c1cc(F)cc(Cl)c1 [Example 172]
(e) CC(=O)N1CCC(n2c(=O)nc(N[C@@H](C)c3cccc(C)c3)[nH]c2=O)CC1 [Example 243]
Put the entries in order of pIC50, starting with the largest number. List each label, following the requested order.
d, e, a, b, c

(1) C[C@H](Nc1nc(=O)n(C2CCOCC2)c(=O)[nH]1)c1cccc(-c2ccc(F)cc2)c1 [Example 226]
(2) C[C@H](Nc1nc(=O)n(C2(C)CCCC2)c(=O)[nH]1)C1CCCCC1 [Example 90]
(3) CC(Nc1nc(=O)n(C2CCN(C(=O)OC(C)(C)C)CC2)c(=O)[nH]1)c1ccc(C(F)(F)F)cc1 (stereo not drawn) [Example 145]
In this exercise, place the 3 compounds in ascending sequence of their recorded pIC50. List each label, following the requested order.
2, 3, 1
